Value source: PubChem BioAssay AID1963960

# Test system: MDA-MB-468 spheroids with HUVEC/MSC, viability
# assay.overview: Anticancer human tumor MDA-MB-468 cell line growth inhibition [PI3K];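 further: spheroids exposed to agents for seven days before readout; 100% = DMSO vehicle control viability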
# experimental.context: compound 0.00316 µM; active compounds read low
quantity.name: viability, T/C

{"compound": "CC(C)n1nc(-c2ccc3oc(N)nc3c2)c2c(N)ncnc21", "quantity.name": "viability, T/C", "assay.value": "93% [middle of 4 runs]"}
{"compound": "CC(=O)c1c(C)c2cnc(Nc3ccc(N4CCNCC4)cn3)nc2n(C2CCCC2)c1=O", "quantity.name": "viability, T/C", "assay.value": "110% [middle of 4 runs]"}
{"compound": "Cn1ncnc1[C@H]1c2n[nH]c(=O)c3cc(F)cc(c23)N[C@@H]1c1ccc(F)cc1", "quantity.name": "viability, T/C", "assay.value": "85.1% [middle of 4 runs]"}
{"compound": "COc1c(OCCCN2CCOCC2)ccc2c3n(c(=NC(=O)c4cnc(N)nc4)nc12)CCN3", "quantity.name": "viability, T/C", "assay.value": "99.8% [middle of 8 runs]"}
{"compound": "CC(Nc1ccc2c(c1)OCCn1cc(N3C(=O)OCC3C(F)F)nc1-2)C(N)=O (stereo not given)", "quantity.name": "viability, T/C", "assay.value": "96.8% [middle of 8 runs]"}
